Assay: yeast display, Sf9 membrane polyspecificity reagent, FACS + sequencing; frameworks hold sequencing errors
observation.type: polyreactivity (PSR sort gate)

Below, 5 sequences whose answers are already recorded.
Measured polyreactivity (PSR sort gate) of HVQLVESGGGLVQAGGSLRLSCAASGFTFANNAMGWYRQAPRKERELVAAISRSGGSTYYADSVKGRFTISRDNAKNTVYLQMNSLKPEDTAVYYCAVYNRPYKEYGYNYWGQGTQVTVSS : high polyreactivity

Memo: QVQLVESGGGLVQAGGSLRLSCAASGSTLVGYDMGWYRQAHGKEMELVADITSTGSTNYADSVKGSFTISRDNAKNTVYLQMNSLKPEDTAVYYCAADLYFYIYSYNYWGQGTQVTVSS , reported polyreactivity (PSR sort gate): low polyreactivity

Consider QVQLQESGCGLVQAGGSLRLSCAASGNIFEADIMGWYHQAQGKERELVASITDGGSTNYADSVKGRFTINRDNAKNNVYLQMNSLKPEDTAVYSCAAIAYPDIPTYFDYDSDYFYWGQGTQVTVSS . Its measured polyreactivity (PSR sort gate) is high polyreactivity

The sequence listed as QVQLVESGRGLVQAGGSLRLSCAASGSMFGKHVMGWYRQAPGKERELVAAISRSGGRTYYADSVKGRFTISRDNANNTVYLQMNTLKPEDTAVYYCAADGQPIGQQTYDYWGQGTQVTVSS shows polyreactivity (PSR sort gate) equal to high polyreactivity

Short answer for QVQLVESGGGLVQAGGSLRLSCAASGFIFGYNAMGWYRQAPGKERELVAAITWIGGTTYYADSVKGRFTISRDNAKNTVYLQMNSLKPEDTAVYYCARQRSYGRSSYSYGYDYWGQGTQVTVSS : polyreactivity (PSR sort gate) was high polyreactivity

---
// sample QVQLVESGGRLVQAGGSLRLSCSASGRICAYYAKGWYRQAPGKDRELVADSTYADSVKGRFTISRDNAKNTVYLQMKSLKPEYTAVYYCAVDYHFFLSRTYLPGSKYDFWGLGTQVTVSS , its polyreactivity (PSR sort gate) was low polyreactivity

According to the records, this sequence QVQLVESGGGLVQAGGSLRLSCAASGRTFSNYAIGWYRQAPGKEREFVSDISWSVGSTYYADSVKGRFTISRDNAKNTVYLQMNSLKPEDTALYYCATEVPVGGQRHLFKYYYWGQGTQVTVSS displays polyreactivity (PSR sort gate) of low polyreactivity

The recorded polyreactivity (PSR sort gate) for QVQLVESGGGLVQAGGSLRLSCAASGFTFWLYAMGWYRQAPGKERELVAAIDWDGGTYYADSVKGRFTISRDNAKNTVYLQMNSLKPEDTAVYYCAARYRYYYTRYDYWGQGTQVTVSS is high polyreactivity

Lookup result for QVQLVDSGGGLVQAGGSLRLSCAASGRIFSWYTMGWYRQAPGKERELVAVITSGGTTKYADSVKGRFTISRDNAKNTVYLQMNSLKPEDTAVYYCNGAGRDYAVRWGSFDYWGQGTQVTVSS ; measured polyreactivity (PSR sort gate): low polyreactivity

The recorded polyreactivity (PSR sort gate) for QVQLVESGGGLVQAGGSLRLSCAASGRIFYGYAMGWYRQAPGKERELVASISRRGSSTYYADSVKGRFTISRDNAKNTVYLQMNSLKPEDTAVYYCAAGYYPFNYWGQGTQLTVSS is high polyreactivity

The reported polyreactivity (PSR sort gate) of the sequence QVQHVESVGGLVQAGGSLRLSCAASGSIFEYNAMGWYRQAPGKERELVAAISWSSGTTYYADSVKGRFTISRDNAKNTVYLQMNSLKPEDTAVYYCNAGRYGKDSDYWGQGTQVTVSS was low polyreactivity
